# assay system: NAMPT (human, recombinant, C-terminally His-tagged) (Homo sapiens)
# Sequence (P43490 whole entry): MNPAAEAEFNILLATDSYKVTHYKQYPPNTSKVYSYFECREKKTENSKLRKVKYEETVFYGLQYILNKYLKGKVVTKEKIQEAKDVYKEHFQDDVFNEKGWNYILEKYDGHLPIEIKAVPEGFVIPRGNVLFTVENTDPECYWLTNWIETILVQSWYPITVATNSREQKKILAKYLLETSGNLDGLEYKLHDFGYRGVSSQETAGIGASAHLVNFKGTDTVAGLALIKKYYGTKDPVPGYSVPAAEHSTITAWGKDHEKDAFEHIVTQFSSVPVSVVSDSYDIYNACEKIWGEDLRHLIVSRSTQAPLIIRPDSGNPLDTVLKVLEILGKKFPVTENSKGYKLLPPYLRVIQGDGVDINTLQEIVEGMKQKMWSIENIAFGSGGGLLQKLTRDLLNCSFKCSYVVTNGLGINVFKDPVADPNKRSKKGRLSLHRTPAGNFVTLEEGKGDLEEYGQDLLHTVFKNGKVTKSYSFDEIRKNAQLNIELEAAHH
# assay overview: Time-Resolved Fluorescence Resonance Energy Transfer (TR-FRET) Binding Assay of NAMPT
# condition info: without substrates; 6.8 nM NAMPT, 200 nM probe, 3 hours equilibration
Recorded IC50 determines the group label, using low range (below 50 nM), mid range (50 nM to below 200 nM), high range (200 nM or more)

compound	assay system	assigned class
O=C(NCc1ccn2ccnc2c1)c1ccc(C2CCN(C(=O)[C@@H]3CCOC3)CC2)cc1	NAMPT (human, recombinant, C-terminally His-tagged) (Homo sapiens)	mid range
CC(C)C(=O)N1CC(c2ccc(C(=O)NCc3ccn4ccnc4c3)cc2)C1	NAMPT (human, recombinant, C-terminally His-tagged) (Homo sapiens)	high range
O=C(NCc1ccc2ncnn2c1)c1ccc(-c2cnn(CC3(F)CCOCC3)c2)o1	NAMPT (human, recombinant, C-terminally His-tagged) (Homo sapiens)	high range
O=C(NCc1cn2ccnc2cn1)c1ccc(C2CCN(C(=O)c3ccc(F)cc3)CC2)cc1	NAMPT (human, recombinant, C-terminally His-tagged) (Homo sapiens)	mid range
O=C(CC1CCCC1)Nc1ccc(NC(=O)NCc2ccn3ccnc3c2)cc1	NAMPT (human, recombinant, C-terminally His-tagged) (Homo sapiens)	low range
CC(C)(C)CC(=O)N1CC=C(c2ccc(C(=O)NCc3ccn4ccnc4c3)o2)CC1	NAMPT (human, recombinant, C-terminally His-tagged) (Homo sapiens)	high range
Cc1ccc(C(=O)N2CCC(c3ccc(C(=O)NCc4ccn5ccnc5c4)cc3)CC2)cc1	NAMPT (human, recombinant, C-terminally His-tagged) (Homo sapiens)	mid range
O=C(CC1CCCO1)Nc1ccc(C(=O)NCc2ccn3ccnc3c2)cc1 (stereo not drawn)	NAMPT (human, recombinant, C-terminally His-tagged) (Homo sapiens)	high range
C[C@@H]1COC(=O)N1c1ncc(C(=O)NCc2ccn3ccnc3c2)s1	NAMPT (human, recombinant, C-terminally His-tagged) (Homo sapiens)	high range
O=C(NCc1ccn2ccnc2c1)Nc1ccc(O[C@@H]2CCN(C(=O)c3cccc(F)c3)C2)cc1	NAMPT (human, recombinant, C-terminally His-tagged) (Homo sapiens)	mid range
O=C(CC1CCCC1)Nc1ccc(NC(=O)Nc2ccc3nccn3c2)cc1	NAMPT (human, recombinant, C-terminally His-tagged) (Homo sapiens)	low range
O=C(NCc1ccn2ccnc2c1)Nc1ccc(C2CCN(C(=O)[C@H]3CCCO3)C2)cc1 (stereo partly drawn)	NAMPT (human, recombinant, C-terminally His-tagged) (Homo sapiens)	high range
CC(C)C(=O)N1CCC(c2ccc(NC(=O)NCc3ccn4ccnc4c3)cc2)C1 (stereo not drawn)	NAMPT (human, recombinant, C-terminally His-tagged) (Homo sapiens)	mid range
CC(C)(C)OC(=O)N1CCC(c2ccc(NC(=O)NCc3ccn4ccnc4c3)cc2)C1 (stereo not drawn)	NAMPT (human, recombinant, C-terminally His-tagged) (Homo sapiens)	mid range
O=C(NCc1ccc2nccn2c1)c1ccc(C2=CCN(C(=O)c3ccccc3)CC2)cc1	NAMPT (human, recombinant, C-terminally His-tagged) (Homo sapiens)	mid range
O=C(Nc1ccc(C(=O)NCCc2ccccc2)cc1)Nc1ccc2nccn2c1	NAMPT (human, recombinant, C-terminally His-tagged) (Homo sapiens)	high range
CC[C@H](C)C(=O)N1CC(Oc2ccc(NC(=O)NCc3ccn4ccnc4c3)cc2)C1	NAMPT (human, recombinant, C-terminally His-tagged) (Homo sapiens)	low range
O=C(NCc1ccn2ccnc2c1)c1ccc(-c2cnn(C[C@@H]3CCCO3)c2)o1	NAMPT (human, recombinant, C-terminally His-tagged) (Homo sapiens)	high range
O=C(NCc1ccn2ccnc2c1)c1ccc(C2CCN(C(=O)c3ccccc3Cl)C2)s1 (stereo not drawn)	NAMPT (human, recombinant, C-terminally His-tagged) (Homo sapiens)	low range
O=C(NCc1ccn2ccnc2c1)c1ccc(C2CCN(C(=O)c3ccccc3F)C2)cc1 (stereo not drawn)	NAMPT (human, recombinant, C-terminally His-tagged) (Homo sapiens)	low range
Cc1noc(C)c1CC(=O)N(C[C@H]1CCCO1)c1ncc(C(=O)NCc2ccn3ccnc3c2)s1	NAMPT (human, recombinant, C-terminally His-tagged) (Homo sapiens)	low range
CC(C)(O)C(=O)N1CC[C@H](Oc2ccc(C(=O)NCc3ccn4ccnc4c3)cc2)C1	NAMPT (human, recombinant, C-terminally His-tagged) (Homo sapiens)	high range
Cc1ncsc1CCC(=O)N(CC1CCCO1)c1ncc(C(=O)NCc2ccc3nccn3c2)s1 (stereo not drawn)	NAMPT (human, recombinant, C-terminally His-tagged) (Homo sapiens)	low range
CC1(C(=O)N2CCC(c3ccc(C(=O)NCc4ccn5ccnc5c4)cc3)CC2)COC1	NAMPT (human, recombinant, C-terminally His-tagged) (Homo sapiens)	high range
O=C(NCc1ccc2nccn2c1)c1cnc(N(CC2CCCO2)C(=O)CCc2nccs2)s1 (stereo not drawn)	NAMPT (human, recombinant, C-terminally His-tagged) (Homo sapiens)	mid range
O=C(CC1CCCC1)Nc1ccc(NC(=O)NCc2cn3ccnc3cn2)cc1	NAMPT (human, recombinant, C-terminally His-tagged) (Homo sapiens)	low range
COCCn1cc(-c2ccc(C(=O)NCc3ccn4ccnc4c3)s2)cn1	NAMPT (human, recombinant, C-terminally His-tagged) (Homo sapiens)	low range
CC(C)CCNC(=O)c1ccc(NC(=O)NCc2ccc3nccn3c2)cc1	NAMPT (human, recombinant, C-terminally His-tagged) (Homo sapiens)	high range
CC(C)(O)C(=O)N1CCC(c2ccc(NC(=O)NCc3ccn4ccnc4c3)cc2)C1 (stereo not drawn)	NAMPT (human, recombinant, C-terminally His-tagged) (Homo sapiens)	high range
